// data source = the Immune Epitope Database (IEDB)

# Study system: HLA-A*01:01
# Experiment notes: IEDB peptide-MHC binding, purified MHC/competitive/radioactivity; filed as Kd, often an IC50 or EC50 that approximates it; bounds were set here for any values at or beyond the usual limits of such assays
# Particulars: source organism: SARS coronavirus Tor2
Measure name: Kd

// Kd lookup, key: `MADQAMTQMY` 0.0184 µM

Next sequence: `VFFGYFASHF` 12.9 µM

Next sequence: `NTNPIQLSSY` 0.105 µM

Next sequence: `SMMGFKMNY` 3.96 µM

Next sequence: `FYGGWHNML` ≥ 78.1 µM

Next sequence: `NYTQHTSSM` ≥ 57 µM

Next sequence: `KFLTNKLLL` ≥ 78.1 µM

Next sequence: `EIDETCEHEY` 0.197 µM

Next sequence: `LFVTIYSHL` 3.76 µM

Next sequence: `GSVGFNIDY` 5.64 µM

Next sequence: `LTNSVIIMAY` 0.0981 µM

Next sequence: `TLDESFLGRY` 0.00566 µM

Next sequence: `FNATKFPSVY` ≥ 56.3 µM
